Reference for the values: the supplement of paper PMC10724198

# System: Saccharomyces cerevisiae;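 also: PSI is a weighted mean of sequencing reads over stability bins, variants kept only with over 10 reads, mCherry proximal and sfGFP distal, peptide attached via GGGS linker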
# test.summary: protein stability index of tFT-peptide fusion (C-terminal peptide) (PSI (0-1 scale)); higher = more stable (slower turnover)
# cond: genetic background: wild type; temperature: 30 C
readout.label: protein stability index

For orientation, consider the following solved cases.
> print(dat)
   record.sequence  result
1     TLVALGFIYASG   0.572
2     KRGRISKKRDSS   0.759
3     RLSSCSAPFPLL   0.719
4     GYMRMGLCVYSD   0.596
5     GRRRARPISRGT   0.681
6     PLPYPPTSPTPR   0.678

Batch: protein stability index for all items listed.
1. TKCSPLASRFSC
2. CTRHNGTCRVKA
3. GGGVGRGGVEYG
4. MRRNGRNILGVA

[0.707, 0.658, 0.609, 0.729]

Batch: protein stability index for all items listed.
1. GGLWPWGRVVCW
2. GCWAFGWLLQYS
3. YRWERIYIGLRL
4. PPRPRSARLFLR
5. RKTPIKTKKSAR
6. PTKLFDTRPRGA

0.687
0.574
0.291
0.728
0.687
0.679

Batch: protein stability index for all items listed.
1. PPPVRFPSLPLA
2. ALVAGGRGRRLW
3. TLCHLTLICVRE
4. FLLFFVLRLLPC
5. LPNLPPTSPERH

1: 0.819; 2: 0.692; 3: 0.382; 4: 0.316; 5: 0.663

Batch: protein stability index for all items listed.
1. VFVCFMSHLRGS
2. ILFLRFLHSVFS
3. QTPPPLPSPHPH
4. EGGGGGPGDARR
5. ASHDIFWAGSRE
6. CSPSYTCRIISF
7. LKKSYSTPFTHY
8. KLKITSKDKIIK

[0.58, 0.536, 0.635, 0.663, 0.766, 0.708, 0.69, 0.671]
